System: MDA-MB-468
Experiment: Antiproliferative activity against human MDA-MB-468 cells after 48 hrs by MTT assay
Type: functional, cell-based
Settings: MDA-MB-468, 48 h
Property measured: IC50 (µM)
Reply numerically in µM, unit not repeated.

Fill in IC50 for record COc1ccc(C(=O)NC2CCN(c3nccc(Nc4ccc(F)cc4)n3)CC2)cc1
8.96

---

Target: Cyclin-dependent kinase 2/cyclin E1 (Homo sapiens)
Assay: Inhibition of recombinant human CDK2/cyclin E after 40 mins by ADP-Glo reagent based luminescence assay
Parameter: IC50. Scope: all listed entries.
Reply numerically in nM, unit not repeated.

Use the examples below as a reference point.
• Cc1cccc(C(=O)NC2CCN(c3nccc(Nc4ccccc4C)n3)CC2)c1 = 288
• Cc1ccccc1Nc1ccnc(N2CCC(NC(=O)c3ccc(F)cc3)CC2)n1 = 459
• COc1ccc(Nc2ccnc(N3CCC(NC(=O)c4cccc(C)c4)CC3)n2)cc1 = 474
• Cc1ccc(C(=O)NC2CCN(c3nc(C)cc(Nc4ccc(F)cc4)n3)CC2)cc1 = 288

Kindly review the next compound as well.
Fill in IC50 for record COc1ccc(Nc2ccnc(N3CCC(NC(=O)c4ccc(F)cc4)CC3)n2)cc1
405
